Biological target: T1, PUF4 RNA-binding domain (Saccharomyces cerevisiae, UniProt P25339 537-888)
T1 sequence: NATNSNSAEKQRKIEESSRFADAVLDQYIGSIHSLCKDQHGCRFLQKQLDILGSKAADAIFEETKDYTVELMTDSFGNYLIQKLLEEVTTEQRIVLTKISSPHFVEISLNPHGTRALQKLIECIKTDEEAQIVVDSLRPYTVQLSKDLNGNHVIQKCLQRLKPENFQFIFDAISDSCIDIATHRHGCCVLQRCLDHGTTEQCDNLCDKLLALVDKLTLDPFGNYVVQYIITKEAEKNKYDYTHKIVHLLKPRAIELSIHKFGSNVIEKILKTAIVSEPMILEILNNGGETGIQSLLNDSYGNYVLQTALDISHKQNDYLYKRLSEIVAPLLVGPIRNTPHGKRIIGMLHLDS
Assay: Mg; RNA-MaP; 20 mM Na-HEPES pH 7.4, 30 mM KOAc, 0.75 mM MgCl2, 0.1% Tween-20, 5% glycerol, 0.1 mg/mL BSA, 2 mM DTT; 25 C; 0.0125-409.6 nM protein
Conditions: tags: N-His6-TEV cleaved; C-SNAP kept, Cy3B-labelled; label: tethered on chip by stalled RNA polymerase
property-measured: Kd (nM)
Give the value in nM but do not write nM after it.

Ib_S4_P4E.1_K4.1_C4.1_H4.1_[G2C]_A4.1_F4.1_[A9C]_T4.1 (ssRNA) RNA: UUUGACAACUGAUCGUUCUUUCUUCUAUAUUCUUCUUUCUCGAUCAGUUGUCUUU :: 1530
UCUCUUUAUACACUAUAUAUCUCUU (ssRNA) [Id_iii_S1_P3E.7_K3.3_C3.3_[C-2A]_H3.3_A3.1_F3.1_T3.2] :: 31.6
Ic_S2_P3E.1_K3.1_C3.1_H3.1_A3.1_[T5G]_[A6C]_F3.1_[T7C]_[A8T]_T3.1 (ssRNA) RNA: UUUGAUUAAUAUGAUAUCGUUCUUUCUUGUAGCCUUUCUUUCUCGAUAUCAUAUUAAUCUUU :: 63.9
Id_ii_S2_P3E.2_K3.1_C3.2_[C-2G]_[T-1G]_H3.1_A3.1_F3.1_T3.2_[T9A]_[A10G] (ssRNA) RNA: UUUGAUUAAUAUGAUAUCGUUCUUUCUGGUGUAUAUAAGUUCUUUCUCGAUAUCAUAUUAAUCUUU :: 11.8
Ie_S2_P3E.2_K3.1_C3.2_H3.1_A3.1_F3.1_[+7CCC]_T3.2 (ssRNA) RNA: UUUGAUUAAUAUGAUAUCGUUCUUUCUCUUGUAUAUCCCAUAUUCUUUCUCGAUAUCAUAUUAAUCUUU :: 19.5
UCUCUUCGUGUAUAUAAAUCUCUU (ssRNA) [Id_ii_S1_P3E.2_K3.1_C3.2_[T-1G]_H3.1_A3.1_F3.1_T3.2_[T9A]] :: 11.9
ACAAACUGUAUUUCUAUUAACAAAC (ssRNA) [Ie_S3_P5E.1_K5.1_C5.1_H5.1_A5.1_[+6TCT]_F5.1_T5.1] :: 7.3
UCUCUUGUUAUAUAUUACCUCUCUU (ssRNA) [Id_ii_S1_P4E.3_K4.2_C4.2_[C-2G]_H4.2_A4.1_F4.1_T4.2_[G10C]_[T11C]] :: 13

Measured Kd of Ic_S2_P3E.1_K3.1_C3.1_H3.1_A3.1_[T5C]_[A6G]_F3.1_[T7C]_[A8C]_T3.1 (ssRNA) RNA: UUUGAUUAAUAUGAUAUCGUUCUUUCUUGUACGCCUUCUUUCUCGAUAUCAUAUUAAUCUUU : 126

Memo: UCUCUUUGUUUAUCUCUCUU (ssRNA) [Ib_S1_P3E.1_K3.1_C3.1_H3.1_[A4T]_A3.1_F3.1_[A8C]_T3.1] , reported Kd: 1280
